# Test System: rat adrenergic α1B receptor (Rattus norvegicus, UniProt P15823)
# Construct: rat adrenergic α1B receptor obtained from Wistar Rat liver; from tissue; host or cells: Wistar rat liver
# Sequence (P15823 1-515): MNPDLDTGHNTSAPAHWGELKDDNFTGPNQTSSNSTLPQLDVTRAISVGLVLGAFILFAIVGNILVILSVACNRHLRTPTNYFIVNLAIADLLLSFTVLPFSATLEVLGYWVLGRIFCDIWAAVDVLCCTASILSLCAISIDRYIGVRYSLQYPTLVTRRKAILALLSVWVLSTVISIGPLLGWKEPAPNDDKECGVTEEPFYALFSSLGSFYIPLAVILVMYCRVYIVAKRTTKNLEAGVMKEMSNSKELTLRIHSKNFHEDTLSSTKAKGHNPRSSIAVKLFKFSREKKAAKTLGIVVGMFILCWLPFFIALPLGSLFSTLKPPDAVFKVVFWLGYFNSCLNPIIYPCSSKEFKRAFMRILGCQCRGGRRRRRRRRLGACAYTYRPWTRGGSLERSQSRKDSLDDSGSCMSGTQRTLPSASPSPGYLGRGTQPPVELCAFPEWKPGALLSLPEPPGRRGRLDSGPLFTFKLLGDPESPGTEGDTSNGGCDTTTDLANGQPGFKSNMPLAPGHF
# Assay Notes: Radioligand binding, adrenergic α1B ([3H]Prazosin)
# Measurement Context: read-out: Percentage inhibition of ligand binding, Adrenergic α1B (0.1 μM), compound at 0.1 μM; [3H]Prazosin; repeat datapoints each shown
Listed compounds paired with reported inhibition at 0.1 µM
Numbers only here, please. The scale is %.

Completed entries (count: 2):
CCN1CCc2c(c3cc(C)ccc3n2CCc2ccccc2)C1 :: 50
CN1CCc2c(c3cc(Cl)ccc3n2CC(O)(c2ccc(F)cc2)C2CC2)C1 (centres unmarked) :: 21

C=C(n1ccnc1)n1c2c(c3cc(C)ccc31)CN(C)CC2 tested on rat adrenergic α1B receptor (Rattus norvegicus, UniProt P15823) gave inhibition at 0.1 µM: 35

Cc1ccc2c(c1)c1c(n2CC(N)c2ccc(C(N)=O)nc2)CCN(C)C1 (centres unmarked) tested on rat adrenergic α1B receptor (Rattus norvegicus, UniProt P15823) gave inhibition at 0.1 µM: 57

Cc1ccc2c(c1)c1c(n2CC(C)(O)c2cccnc2)CC(C)N(C)C1 (single isomer, unassigned) [II-146a] tested on rat adrenergic α1B receptor (Rattus norvegicus, UniProt P15823) gave inhibition at 0.1 µM: 23

C/C(=C\n1c2c(c3cc(C)ccc31)CCN(C)CC2)c1ccc(Cl)c(Cl)c1 tested on rat adrenergic α1B receptor (Rattus norvegicus, UniProt P15823) gave inhibition at 0.1 µM: 67

Cc1ccc2c(c1)c1c(n2CC(C)(O)c2ccc(C)nc2)CN(C)CC1 (single isomer, unassigned) [196a] tested on rat adrenergic α1B receptor (Rattus norvegicus, UniProt P15823) gave inhibition at 0.1 µM: 54.6

C/C(=C\n1c2c(c3cc(Cl)ccc31)CCN(C)CC2)c1ccc(Cl)cc1Cl tested on rat adrenergic α1B receptor (Rattus norvegicus, UniProt P15823) gave inhibition at 0.1 µM: 17

###

Listed compounds paired with reported Percentage inhibition of ligand binding, Adrenergic α2B
# Test System: human recombinant adrenergic α2B receptor (Homo sapiens)
# Construct: expressed in transfected cells; host or cells: CHO-K1
# Sequence (P18089 whole entry): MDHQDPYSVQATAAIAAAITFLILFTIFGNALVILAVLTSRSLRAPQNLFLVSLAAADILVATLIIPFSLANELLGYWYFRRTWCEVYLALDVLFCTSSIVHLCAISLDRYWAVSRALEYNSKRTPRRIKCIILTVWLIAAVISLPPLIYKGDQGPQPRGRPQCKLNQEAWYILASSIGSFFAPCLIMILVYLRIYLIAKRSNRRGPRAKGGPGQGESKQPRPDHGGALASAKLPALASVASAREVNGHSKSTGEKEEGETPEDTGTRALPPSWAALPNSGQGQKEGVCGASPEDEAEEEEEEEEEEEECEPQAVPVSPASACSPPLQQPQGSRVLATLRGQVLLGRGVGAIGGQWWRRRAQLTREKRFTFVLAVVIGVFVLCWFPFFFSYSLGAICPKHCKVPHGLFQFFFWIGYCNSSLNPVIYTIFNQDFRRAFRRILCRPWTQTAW
# Assay Notes: Radioligand binding, adrenergic α2B ([3H]Rauwolscine)
# Measurement Context: compound at 0.03 μM; [3H]Rauwolscine; repeat assays, each datapoint shown; 0.03 µM
Numbers only here, please. The scale is %.

Completed entries (count: 4):
OC(Cn1c2c(c3cccnc31)CN1CCCC1C2)c1ccncc1 (single isomer, unassigned) [37a] :: 2
COc1cccc2c3c(n(CC(O)c4ccncc4)c12)CCN(C)C3 (single isomer, unassigned) [44b] :: 75
COc1ccc(C(O)Cn2c3c(c4cc(C)ccc42)CN(C)CC3)cn1 (single isomer, unassigned) [51b] :: 90
Cc1ccc2c(c1)c1c(n2CC(C)(O)c2ccccn2)CN(C)CC1 (single isomer, unassigned) [16a] :: 33

Next item in the queue.
Just so you know, measured Percentage inhibition of ligand binding, Adrenergic α2B for OC(Cn1c2c(c3cc(Cl)ccc31)CNCC2)c1ccncc1 (single isomer, unassigned) [10a] came out at 34

FYI, the data here is from patent US8791132B2.
